// provenance: patent US20230295087A1

- Assayed target: human RORgT (Homo sapiens, UniProt P51449)
- Sequence (P51449 267-516): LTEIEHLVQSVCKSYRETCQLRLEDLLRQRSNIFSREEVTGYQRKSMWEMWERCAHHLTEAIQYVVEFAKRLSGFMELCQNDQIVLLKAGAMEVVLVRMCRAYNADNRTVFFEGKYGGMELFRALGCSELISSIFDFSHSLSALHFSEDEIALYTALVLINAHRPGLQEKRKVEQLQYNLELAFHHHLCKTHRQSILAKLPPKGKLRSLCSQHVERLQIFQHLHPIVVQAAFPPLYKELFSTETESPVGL
- Assay text: RORgT Gal4 Luciferase Reporter Gene Assay
- Settings: engineered Jurkat cells overexpressing RORgT (LBD or full length) fused with Gal4 Luc reporter; 18 hours at 37° C.; luminescence
Readout: EC50 (nM)

| Compound | Numeric value |
| --- | --- |
| O=C(C1CCC(B(O)O)CC1)N1CC[C@@]2(S(=O)(=O)c3ccc(F)cc3)c3ccc(OCc4c(F)cccc4C(F)(F)F)cc3CC[C@@H]12 (stereo partly drawn) [Example 13] | 1.5 |
| CS(=O)(=O)C1CCN(C(=O)N2CC[C@@]3(S(=O)(=O)c4ccccc4)c4ccc(OCc5c(Cl)cccc5Cl)cc4CC[C@@H]23)C1 (stereo partly drawn) [Example 93] | 290 |
| O=C(O)[C@H]1CC[C@H](C(=O)N2CC[C@@]3(S(=O)(=O)c4ccc(F)cc4)c4ccc(Oc5c(F)cccc5Cl)cc4CC[C@@H]23)CC1 [Example 37] | 3.3 |
| O=C(C1CCS(=O)(=O)CC1)N1CC[C@@]2(S(=O)(=O)c3ccc(F)cc3)c3ccc(Oc4c(F)cccc4C(F)(F)F)cc3CC[C@@H]12 [Example 39] | 2.7 |
| CC(=O)N1CCC(C(=O)N2CC[C@@]3(S(=O)(=O)c4ccc(F)cc4)c4ccc(OCc5cc(F)c(F)cc5Cl)cc4CC[C@@H]23)CC1 [Example 219] | 53 |
| CC(C)(O)CNC(=O)N1CC[C@@]2(S(=O)(=O)c3ccccc3)c3ccc(OCc4c(Cl)cccc4Cl)cc3CC[C@@H]12 [Example 91] | 104 |

[P] CC1(CN2CC[C@@]3(S(=O)(=O)c4ccc(F)cc4)c4ccc(OCc5c(F)cccc5C(F)(F)F)cc4CC[C@@H]23)CCNCC1 [Example 45]
[Q] O=C(C1CCS(=O)(=O)CC1)N1CC[C@@]2(S(=O)(=O)c3ccc(F)cc3)c3ccc(CCc4c(Cl)cccc4Cl)cc3CC[C@@H]12 [Example 161]
[R] CC(=O)N[C@H]1CC[C@H](C(=O)N2CC[C@@]3(S(=O)(=O)c4ccc(F)cc4)c4ccc(OCc5c(F)cccc5C(F)(F)F)cc4CC[C@@H]23)CC1 [Example 108]
Could you please sort these 3 entries by EC50 from high to low? List labels; respect the requested ordering. P, R, Q
(P: 306 nM, R: 131 nM, Q: 5.8 nM)

---

- Assayed target: human RORgT (Homo sapiens, UniProt P51449)
- Construct: expressed in transfected cells
- Assay text: RORgT Gal4 Luciferase Reporter Gene Assay
- Assay type: cell-based
- Settings: engineered Jurkat cells overexpressing RORgT (LBD or full length) fused with Gal4 Luc reporter; 18 hours at 37° C.; luminescence
Readout: EC50 (nM)

Known EC50 results, listed for orientation:
| Compound | EC50, nM |
| --- | --- |
| O=C(CN1CCS(=O)(=O)CC1)N1CC[C@@]2(S(=O)(=O)c3ccc(F)cc3)c3ccc(OCc4cc(Cl)ccc4Cl)cc3CC[C@@H]12 | 49 |
| O=C(CN1CCS(=O)(=O)CC1)N1CC[C@@]2(S(=O)(=O)c3ccc(F)cc3)c3ccc(OCc4c(F)cccc4Cl)cc3CC[C@@H]12 | 11 |
| O=C1NC(C(=O)N2CC[C@@]3(S(=O)(=O)c4ccccc4)c4ccc(OCc5c(Cl)cccc5Cl)cc4CC[C@@H]23)CO1 (stereo partly drawn) | 256 |
| O=C(C1CCS(=O)(=O)C1)N1CC[C@@]2(S(=O)(=O)c3ccc(F)cc3)c3ccc(OCc4c(Cl)cccc4Cl)cc3CC[C@@H]12 (stereo partly drawn) | 14 |

[I] O=C(NC1CCS(=O)(=O)C1)N1CC[C@@]2(S(=O)(=O)c3ccccc3)c3ccc(OCc4c(Cl)cccc4Cl)cc3CC[C@@H]12 (stereo partly drawn)
[II] NC(=O)N1CCC(C(=O)N2CC[C@@]3(S(=O)(=O)c4ccc(F)cc4)c4ccc(OCc5ccc(F)cc5Cl)cc4CC[C@@H]23)CC1
Which numeric EC50 is bigger, that of I or that of II ? Provide the label of your selected option as the answer. I
(I: 62 nM, II: 19 nM)

---

- Assayed target: human RORgT (Homo sapiens, UniProt P51449)
- Assay text: RORgT Gal4 Luciferase Reporter Gene Assay
- Settings: engineered Jurkat cells overexpressing RORgT (LBD or full length) fused with Gal4 Luc reporter; 18 hours at 37° C.; luminescence
Readout: EC50 (nM)

[P] CS(=O)(=O)N1CC[C@@]2(S(=O)(=O)c3ccccc3)c3ccc(OCc4c(Cl)cccc4Cl)cc3CC[C@@H]12 [Example 75]
[Q] O=C(O)[C@H]1CC[C@H](C(=O)N2CC[C@@]3(S(=O)(=O)c4ccc(F)cc4)c4ccc(OCc5cc(F)c(F)cc5Cl)cc4CC[C@@H]23)CC1 [Example 151]
Which numeric EC50 is bigger, that of P or that of Q ? Provide the label of your selected option as the answer. P

[a] O=C(O)[C@H]1CC[C@H](CN2CC[C@@]3(S(=O)(=O)c4ccc(F)cc4)c4ccc(OCc5c(F)cccc5C(F)(F)F)cc4CC[C@@H]23)CC1 [Example 10]
[b] CS(=O)(=O)N1CC(NC(=O)N2CC[C@@]3(S(=O)(=O)c4ccccc4)c4ccc(OCc5c(Cl)cccc5Cl)cc4CC[C@@H]23)C1 [Example 85]
Between item a and item b , which reported EC50 is smaller? Provide the label of your selected option as the answer. b
(b: 18 nM, a: 39 nM)

[a] [2H]C([2H])(Oc1ccc2c(c1)CC[C@H]1N(C(=O)[C@H]3CC[C@H](C(=O)O)CC3)CC[C@@]21S(=O)(=O)c1ccc(F)cc1)c1c(F)cccc1Cl [Example 222]
[b] CCOC(=O)CNC(=O)N1CC[C@@]2(S(=O)(=O)c3ccccc3)c3ccc(OCc4c(Cl)cccc4Cl)cc3CC[C@@H]12 [Example 73]
Which numeric EC50 is bigger, that of a or that of b ? Provide the label of your selected option as the answer. b

---

- Assayed target: human RORgT (Homo sapiens)
- Assay text: RORgT Gal4 Luciferase Reporter Gene Assay
- Settings: engineered Jurkat cells overexpressing RORgT (LBD or full length) fused with Gal4 Luc reporter; 18 hours at 37° C.; luminescence
Readout: EC50 (nM)

| Molecule | Assayed target | EC50, nM |
| --- | --- | --- |
| O=C(O)[C@H]1CC[C@H](C(=O)N2CC[C@@]3(S(=O)(=O)c4ccc(F)cc4)c4ccc(Oc5c(F)ccnc5F)cc4CC[C@@H]23)CC1 | human RORgT (Homo sapiens) | 25 |
| CS(=O)(=O)CC(=O)N1CC[C@@]2(S(=O)(=O)c3ccc(F)cc3)c3ccc(OCc4c(F)cc(F)cc4Cl)cc3CC[C@@H]12 | human RORgT (Homo sapiens) | 168 |
| O=C(C1CCS(=O)(=O)C1)N1CC[C@@]2(S(=O)(=O)c3ccc(F)cc3)c3ccc(OCc4cc(F)c(F)cc4Cl)cc3CC[C@@H]12 (stereo partly drawn) | human RORgT (Homo sapiens) | 4.9 |

[P] CC(=O)N1CCC(C(=O)N2CC[C@@]3(S(=O)(=O)c4ccc(F)cc4)c4ccc(OCc5ccc(F)cc5Cl)cc4CC[C@@H]23)CC1
[Q] CS(=O)(=O)N[C@@H]1CCCN(C(=O)N2CC[C@@]3(S(=O)(=O)c4ccccc4)c4ccc(OCc5c(Cl)cccc5Cl)cc4CC[C@@H]23)C1
Between item P and item Q , which reported EC50 is smaller? Provide the label of your selected option as the answer. P

---

- Assayed target: human RORgT (Homo sapiens, UniProt P51449)
- Assay text: RORgT Gal4 Luciferase Reporter Gene Assay
- Settings: engineered Jurkat cells overexpressing RORgT (LBD or full length) fused with Gal4 Luc reporter; 18 hours at 37° C.; luminescence
pEC50: −log10 of the molar value.
Readout: pEC50

| Molecule | Assayed target | pEC50 |
| --- | --- | --- |
| Cc1ccccc1Cc1ccc2c(c1)CC[C@H]1N(C(=O)[C@]3(C)CC[C@@H](C(=O)O)CC3)CC[C@@]21S(=O)(=O)c1ccc(F)cc1 [Example 12] | human RORgT (Homo sapiens, UniProt P51449) | 7.72 |

[I] O=C(C1CCS(=O)(=O)CC1)N1CC[C@@]2(S(=O)(=O)c3ccc(F)cc3)c3ccc(OCc4cc(F)c(F)cc4Cl)cc3CC[C@@H]12 [Example 152]
[II] CC(C)S(=O)(=O)CC(=O)N1CC[C@@]2(S(=O)(=O)c3ccccc3)c3ccc(OCc4c(Cl)cccc4Cl)cc3CC[C@@H]12 [Example 102]
Which numeric pEC50 is bigger, that of I or that of II ? Provide the label of your selected option as the answer. I
